The measured values listed here are drawn from patent US20250333501A1.

# System Tested: T1, human CLDN6 fused to GFP, expressed on engineered HEK293T cells (HEK293T-CLDN6-mGFP) (human, UniProt P56747 1-220)
# T1 construct: It calls residues 1-21 a signal peptide; also called Claudin-6; HEK293T-CLDN6-mGFP Artificial CLDN6+; not shown: mGFP tag
# T1 sequence: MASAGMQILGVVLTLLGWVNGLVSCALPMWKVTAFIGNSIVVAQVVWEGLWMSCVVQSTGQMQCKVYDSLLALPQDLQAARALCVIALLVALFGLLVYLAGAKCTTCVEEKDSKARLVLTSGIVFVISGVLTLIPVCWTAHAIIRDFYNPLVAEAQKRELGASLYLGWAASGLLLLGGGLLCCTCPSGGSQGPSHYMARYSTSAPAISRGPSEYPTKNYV
# Assay Info: FACS, 0.3 µg Ab, 293T clone with human CLDN6
Assay Metric: FACS fluorescence
Could you respond with only the numeric value?

Provide one value: measured FACS fluorescence of AB4-chim (antibody, V domains shown, 'chim' is the pre-humanized form (parental variable regions); also called pre-humanized (chimeric) form of AB4) VH: QVQLQQSGAELARPGASVKMSCKASGYTFTSYTMHWIKQRPGQGQEWIGYINPSSTYTHYIKKFKDKATLTADKSSSTAYMQLRSLTSEDSAVYYCSRGELGGFAYWGQGTLVTVSA VL: DVVMTQTPLSLPVSLGDQASISCRSSQSLVHSDGNTYLNWYLQKPGQSPKLLIYKVSNRFSGVPDRFSGSGSGTDFTLKIRRVEAEDLGVYFCSQSTHVPYTFGGGTKLEIK
176000
